The measurements presented in this section are drawn from PubChem BioAssay (NCI).

# System: DU-145 prostate
# methodNotes: NCI tumour cell line growth inhibition, 48 h; in the data active = GI50 below about 0.43 µM; inactive = the rest
Valid outcomes are listed here; reply with one: active, inactive

Query: recorded result category for `Cn1c(-c2ccccc2)c(/C=C/C2=[N+](C)c3ccccc3C2(C)C)c2ccccc21` in this test inactive

Query: recorded result category for CC([C@H]1CC=C2C3CCC4=C[C@@H](N(C)C)CC[C@]4(C)C3CC[C@@]21C)N(C)C (some centres not stated) in this test inactive

Query: recorded result category for Cc1c(N)nc(C(CC(N)=O)NCC(N)C(N)=O)nc1C(=O)NC(C(=O)NC(C)C(O)C(C)C(=O)NC(C(=O)NCCc1nc(-c2nc(C(=O)NCCCNC(C)c3ccccc3)cs2)cs1)C(C)O)C(OC1OC(CO)C(O)C(O)C1OC1OC(CO)C(O)C(OC(N)=O)C1O)c1cnc[nH]1 (configuration not stated) in this test inactive

Query: recorded result category for `CCCCCCCCCCCCCC[n+]1ccc(C(N)=O)cc1` in this test inactive

Query: recorded result category for `COC(=O)c1c2c(c(C)[n+]([O-])c1C)C(=O)C=C(NCc1cccc(Cl)c1)C2=O` in this test inactive

Query: recorded result category for `C=C1C(=O)O[C@H]2[C@H]1CC/C(COC(=O)OC/C1=C/CC[C@@]3(C)O[C@H]3[C@H]3OC(=O)[C@@H](CN(C)C)[C@@H]3CC1)=C\CC[C@@]1(C)O[C@@H]21` in this test inactive

Query: recorded result category for `COc1ccc(/C=C2\SC(=Nc3ccccc3)NC2=O)cc1` in this test inactive

Query: recorded result category for `O=C(CI)Nc1ccc(O)c2ccccc12` in this test inactive

Query: recorded result category for `NC(N)=NC(N)=NCCCc1ccco1` in this test inactive

Query: recorded result category for `COc1cc(C(=O)O[C@H](C(=O)NCCN(C)CCNC(=O)[C@@H](OC(=O)c2cc(OC)cc3c(C)cccc23)[C@]2(C)CO2)[C@]2(C)CO2)c2cccc(C)c2c1` in this test active

Query: recorded result category for `CCCCCCCCCCCCCCCCOP(=O)([O-])OCC[N+](C)(C)C` in this test inactive

Query: recorded result category for `COc1ccc(/C(C#N)=C/c2cc(OC)c(OC)c(OC)c2)cc1` in this test inactive

###

# Test system: DU-145 prostate
# methodNotes: NCI tumour cell line growth inhibition, 48 h
Answer each item with its documented TGI.

Specify reported TGI for the molecule shown: `COc1ccc(NC(=O)c2sc3nc(C)c(C(=O)/C=C/c4cccc(OC)c4)cc3c2N)cc1` 5.66 µM

Specify reported TGI for the molecule shown: `CCCCSC1=N/C(=C\c2ccc(N(C)C)cc2)C(=O)N1` > 100 µM

Specify reported TGI for the molecule shown: `COC(=O)c1ccccc1/C=C1\Cc2ccc3c(c2C1=O)CCCC3` > 100 µM

Specify reported TGI for the molecule shown: `COc1ccc2c(c1)NC1(CCN(CCCC(=O)c3ccc(F)cc3)CC1)N=N2` 46.8 µM

Specify reported TGI for the molecule shown: `Cc1ccc(NC(=O)/C(Cc2cc(=O)oc3cc(O)ccc23)=N\NC(C)(C)C)cc1C` > 100 µM

###

# System: ACHN renal
# methodNotes: NCI tumour cell line growth inhibition, 48 h; in the data active means GI50 below about 0.43 µM; inactive means the rest
Valid outcomes are listed here; reply with one: active, inactive

Query: recorded result category for `CO[C@H]1C[C@](C)(O)Cc2cc3c(c(O)c21)C(=O)c1c(O)cc2c(c1C3=O)O[C@@H]1O[C@@]2(C)[C@H](O)[C@@H](N(C)C)[C@@H]1O` in this test active

Query: recorded result category for `COc1ccc(/C(C#N)=C/c2cc(OC)c(OC)c(OC)c2)cc1` in this test inactive

Query: recorded result category for `CCCCCCCCCCCCCCCCOP(=O)([O-])OCC[N+](C)(C)C` in this test inactive

Query: recorded result category for `CC(=O)/C=C/C1=C(c2csc3ccccc23)c2ccccc2CC1` in this test inactive

Query: recorded result category for `O=C1C=Cc2c1ccc1ccccc21` in this test inactive
